Data credit: paper PMC10885153

Settings: PAMPA, 10 µM, pH 7.4
Positions of bridges follow the written chain, without caps; N, C: chain ends. Non-standard residues stand in square brackets, D forms with d. Residues, ends and D or L forms follow the SMILES beside them. Cha = N[C@@H](CC1CCCCC1)C(=O)O; NMeAbu = CC[C@H](NC)C(=O)O; NMeC = CN[C@@H](CS)C(=O)O; NMeA = CN[C@@H](C)C(=O)O; Nva = CCC[C@H](N)C(=O)O; Abu = CC[C@H](N)C(=O)O; NPrGly = CCCNCC(=O)O
attribute measured: %R_avg (%)
Answers are plain numbers, in %.

compound: CCOC(=O)[C@@H]1CSCC(=O)N[C@@H](CC(C)C)C(=O)N(C)[C@@H](C)C(=O)N[C@@H](CC(C)C)C(=O)N2CCC[C@@H]2C(=O)N(C)[C@@H](CC)C(=O)N[C@@H](CC)C(=O)N(C)[C@@H](C)C(=O)N[C@@H](CC(C)C)C(=O)N1C [LC02] ({CH2CO}-L[NMeA]L[dP][NMeAbu][Abu][NMeA]L[NMeC]-OEt; thioether N-9)
%R_avg [%]: 19.3

Attention now shifts to the item below.
Query string: Please supply the value of reported %R_avg for the item CCC[C@@H]1NC(=O)CN(CCC)C(=O)[C@H](CC(C)C)NC(=O)CSC[C@@H](C(=O)OCC)N(C)C(=O)[C@H](CC(C)C)NC(=O)[C@H](C)N(C)C(=O)[C@H](CC2CCCCC2)NC(=O)[C@H](C)N(C)C(=O)[C@H]2CCCN2C1=O [LB11] ({CH2CO}-L[NPrGly][Nva][dP][NMeA][Cha][NMeA]L[NMeC]-OEt; thioether N-9)
Result string: 6.2

----------
Assay: in vitro
Conditions: PAMPA, pH 7.4, Papp
Positions of bridges follow the written chain, without caps; N, C: chain ends. Non-standard residues stand in square brackets, D forms with d. Residues, ends and D or L forms follow the SMILES beside them. NMeC = CN[C@@H](CS)C(=O)O; NMeA = CN[C@@H](C)C(=O)O; dAbu = CC[C@@H](N)C(=O)O; dNMeA = CN[C@H](C)C(=O)O; Nleu = CC(C)CNCC(=O)O
attribute measured: Papp at 10 µM

Query string: Please supply the value of reported Papp at 10 µM for the item CCOC(=O)[C@@H]1CSCC(=O)N[C@H](CC)C(=O)N(CC(C)C)CC(=O)N[C@@H](CC(C)C)C(=O)N(C)[C@H](C)C(=O)N(C)[C@@H](C)C(=O)N[C@H](CC(C)C)C(=O)N(C)[C@H](C)C(=O)N[C@@H](CC(C)C)C(=O)N1C [B1] ({CH2CO}-[dAbu][Nleu]L[dNMeA][NMeA][dL][dNMeA]L[NMeC]-OEt; thioether N-9)
Result string: ~10 ×10⁻⁶ cm/s

----------
Assay: in vitro
Conditions: PAMPA, pH 7.4, PAMPA Pe_avg
Positions of bridges follow the written chain, without caps; N, C: chain ends. Non-standard residues stand in square brackets, D forms with d. Residues, ends and D or L forms follow the SMILES beside them. NMeC = CN[C@@H](CS)C(=O)O; NMeA = CN[C@@H](C)C(=O)O; dAbu = CC[C@@H](N)C(=O)O; dNMeA = CN[C@H](C)C(=O)O; Abu = CC[C@H](N)C(=O)O; Nleu = CC(C)CNCC(=O)O; NEtG = CCNCC(=O)O
Could you please report measured Papp at 10 µM for the items listed next?
The reply should read as a number followed by its unit.

Please review the entries below; each comes with its answer.
molecule: CCOC(=O)[C@@H]1CSCC(=O)N[C@@H](CC)C(=O)N(C)[C@@H](C)C(=O)N[C@H](CC(C)C)C(=O)N2CCC[C@@H]2C(=O)N(CC)CC(=O)N[C@H](CC(C)C)C(=O)N(C)[C@@H](C)C(=O)N[C@@H](CC(C)C)C(=O)N1C [JF206_ADL_LDDL_Ethyl] ({CH2CO}-[Abu][NMeA][dL][dP][NEtG][dL][NMeA]L[NMeC]-OEt; thioether N-9)
Papp at 10 µM: 0.315 ×10⁻⁶ cm/s
--
molecule: CCOC(=O)[C@@H]1CSCC(=O)N[C@H](CC)C(=O)N(C)[C@@H](C)C(=O)N[C@H](CC(C)C)C(=O)N2CCC[C@@H]2C(=O)N(CC(C)C)CC(=O)N[C@@H](CC(C)C)C(=O)N(C)[C@H](C)C(=O)N[C@@H](CC(C)C)C(=O)N1C [JF206_ADD_DDLD_Isobutyl] ({CH2CO}-[dAbu][NMeA][dL][dP][Nleu]L[dNMeA]L[NMeC]-OEt; thioether N-9)
Papp at 10 µM: 0.125 ×10⁻⁶ cm/s

Attention now shifts to the item below.
Query string: Please supply the value of reported Papp at 10 µM for the item CCOC(=O)[C@@H]1CSCC(=O)N[C@H](CC)C(=O)N(C)[C@@H](C)C(=O)N[C@@H](CC(C)C)C(=O)N2CCC[C@@H]2C(=O)N(CC)CC(=O)N[C@@H](CC(C)C)C(=O)N(C)[C@H](C)C(=O)N[C@@H](CC(C)C)C(=O)N1C [JF206_ADD_DLLD_Ethyl] ({CH2CO}-[dAbu][NMeA]L[dP][NEtG]L[dNMeA]L[NMeC]-OEt; thioether N-9)
Result string: 0.174 ×10⁻⁶ cm/s

----------
Assay: in vitro
Conditions: dog, MDCK, pH 7.4
Positions of bridges follow the written chain, without caps; N, C: chain ends. Non-standard residues stand in square brackets, D forms with d. Residues, ends and D or L forms follow the SMILES beside them. NMeAbu = CC[C@H](NC)C(=O)O; NMeC = CN[C@@H](CS)C(=O)O; NMeA = CN[C@@H](C)C(=O)O; dAbu = CC[C@@H](N)C(=O)O; dNMeA = CN[C@H](C)C(=O)O; Nva = CCC[C@H](N)C(=O)O; Abu = CC[C@H](N)C(=O)O; Nleu = CC(C)CNCC(=O)O; NPrGly = CCCNCC(=O)O
attribute measured: Papp at 3 h, 10 µM (×10⁻⁶ cm/s)
Answers are plain numbers, in ×10⁻⁶ cm/s.

Please review the entries below; each comes with its answer.
compound: CCC[C@@H]1NC(=O)CN(CCC)C(=O)[C@H](CC(C)C)NC(=O)CSC[C@@H](C(=O)OCC)N(C)C(=O)[C@H](CC(C)C)NC(=O)[C@H](C)N(C)C(=O)[C@H](CC(C)C)NC(=O)[C@H](C)N(C)C(=O)[C@H]2CCCN2C1=O [LB07] ({CH2CO}-L[NPrGly][Nva][dP][NMeA]L[NMeA]L[NMeC]-OEt; thioether N-9)
attribute measured: Papp at 3 h, 10 µM
uom: ×10⁻⁶ cm/s
observed value: 3.2
--
compound: CCOC(=O)[C@@H]1CSCC(=O)N[C@H](CC)C(=O)N(CC(C)C)CC(=O)N[C@@H](CC(C)C)C(=O)N(C)[C@H](C)C(=O)N(C)[C@@H](C)C(=O)N[C@@H](CC(C)C)C(=O)N(C)[C@H](C)C(=O)N[C@@H](CC(C)C)C(=O)N1C [B1-6L] ({CH2CO}-[dAbu][Nleu]L[dNMeA][NMeA]L[dNMeA]L[NMeC]-OEt; thioether N-9)
attribute measured: Papp at 3 h, 10 µM
uom: ×10⁻⁶ cm/s
observed value: 0.4

Consider the following items and state reported Papp at 3 h, 10 µM for each.
1. CCOC(=O)[C@@H]1CSCC(=O)N[C@H](CC)C(=O)N(CC(C)C)CC(=O)N[C@@H](CC(C)C)C(=O)N(C)[C@H](C)C(=O)N(C)[C@@H](C)C(=O)N[C@H](CC(C)C)C(=O)N(C)[C@@H](C)C(=O)N[C@@H](CC(C)C)C(=O)N1C [B1-7L] ({CH2CO}-[dAbu][Nleu]L[dNMeA][NMeA][dL][NMeA]L[NMeC]-OEt; thioether N-9)
2. CCOC(=O)[C@@H]1CSCC(=O)N[C@@H](CC(C)C)C(=O)N(C)[C@@H](C)C(=O)N[C@@H](CC(C)C)C(=O)N2CCC[C@@H]2C(=O)N(C)[C@@H](CC)C(=O)N[C@@H](CC)C(=O)N(C)[C@@H](C)C(=O)N[C@@H](CC(C)C)C(=O)N1C [LC02] ({CH2CO}-L[NMeA]L[dP][NMeAbu][Abu][NMeA]L[NMeC]-OEt; thioether N-9)

Result string:
1. 1.2
2. 7.4

----------
Conditions: PAMPA
Positions of bridges follow the written chain, without caps; N, C: chain ends. Non-standard residues stand in square brackets, D forms with d. Residues, ends and D or L forms follow the SMILES beside them. NMeF = CN[C@@H](Cc1ccccc1)C(=O)O; NMeC = CN[C@@H](CS)C(=O)O; NMeA = CN[C@@H](C)C(=O)O; dAbu = CC[C@@H](N)C(=O)O; dNMeA = CN[C@H](C)C(=O)O; Nleu = CC(C)CNCC(=O)O
Could you please report measured Papp for the items listed next?
One number for each entry, in ×10⁻⁶ cm/s.

molecule: CCOC(=O)[C@@H]1CSCC(=O)N[C@H](CC)C(=O)N(C)[C@@H](C)C(=O)N[C@@H](CC(C)C)C(=O)N2CCC[C@@H]2C(=O)N(CC(C)C)CC(=O)N[C@H](CC(C)C)C(=O)N(C)[C@H](C)C(=O)N[C@@H](CC(C)C)C(=O)N1C [A1-4dP] ({CH2CO}-[dAbu][NMeA]L[dP][Nleu][dL][dNMeA]L[NMeC]-OEt; thioether N-9)
uom: ×10⁻⁶ cm/s
observed value: 0.3

Attention now shifts to the item below.
Query string: Please supply the value of reported Papp for the item CC(C)C[C@@H]1NC(=O)[C@H](Cc2ccccc2)N(C)C(=O)[C@H]2CCCN2C(=O)[C@H](CC(C)C)NC(=O)[C@H](C)N(C)C(=O)[C@H](CC(C)C)NC(=O)[C@H](Cc2ccccc2)N(C)C(=O)[C@H]2CCCN2C(=O)[C@H](CC(C)C)NC(=O)[C@H](C)N(C)C1=O [compound 1] (cyclo(L[NMeA]L[dP][NMeF]L[NMeA]L[dP][NMeF]))
Result string: 5
